- TEST_SUMMARY: yeast display, Sf9 membrane polyspecificity reagent, FACS + sequencing; frameworks hold sequencing errors
MEASUREMENT_KIND: polyreactivity (PSR sort gate)

POLYMER_SEQUENCE	RESULT
QVQLVETGGGIVQAGGRLRLSCAASGFTFYANTMGWYRQAPGKERELVATIRSTGSTKYADSVKGRFTISRDNAMNTVYLQMNSLNPEDTAVYYCAKRDRYYGVAVEGIRYDYWGQGTQVTVSS	high polyreactivity
QVQLVESGGGLVQAGGSLRLSCAASGRIFYPYAMGWYRQAPGKERELVAAITSGGRTNYADSVKGRFTISRDNAKNTVYLQMNSLKPEDTAVYYCAATRFRHGKRMDYWGQGTQVTVSS	high polyreactivity
QVQLVESGGGLVQAGGSLRLSCAASGFIFKSNGMGRYRPEPGKERELVSAIRRSGGSTYYADSVKGRFSISRDYAKNTFYLQMNSLKPEVTAVYYCGIRRGVYTHWYDYWGQGTQVTVSS	high polyreactivity
QVQLVESGGGLVQAGGSLRLSCAASGSTISGNAMGWYRQAPGKERELVAAISQSGGSTYYADSVKGRFTISRDNAKNTVYLQMNSLKPEDTAVYYCNRLYYFLARRMDSWGQGTQVTVSS	high polyreactivity

-- ask So what's the measured polyreactivity (PSR sort gate) for this one? QVQLVESGGGLVQAGGRLRLSCAASGYTFTHYAMGLYRQAPVKESELVASIRNSGSRTYYADSVKGRFTISPDNAKNTVYLQLNSLKPEDTAVYYCAAKTTTPYRYIYYYWGQGTQVTVSS
-- reply high polyreactivity

-- ask Quick one: polyreactivity (PSR sort gate) of QVQLVESGGGLVQAGGSLRLSCAASGRIFGKNAMGWYRQAPGKERELVAAISSSGGSTYYADSVKGRFTISRDNAKNTVYLQMNSLKPEDTAVYYCAAGVTRGMDYWGQGTQVTVSS ?
-- reply high polyreactivity

-- ask For the sequence shown here, QVQLVESGGVLVQAGGSLRLSCAASGITFSRNAMGWYRQAPGKEMELVAAITWNGGRTYYADSVKGRFTISRDNAKNTVYLPMNSLKPEATAVYYCAADYDYPDYYAPSWPGYNYWGQVTQVTVSS , give the reported polyreactivity (PSR sort gate).
-- reply low polyreactivity

-- ask Any idea what its polyreactivity (PSR sort gate) is? The sequence is QVQLVESGGGLVQAGGSLRLSCAASGRILVGYAMGWYRQAPGKERELVAAITGSGASTYYADSVKGRFKISRDNAKNTVYLQMNSLKPEDTAVYYCAASYFNYGVGIWYDYWGQGTQVTVSS
-- reply high polyreactivity

-- ask Requested field: polyreactivity (PSR sort gate). Item: QVQLVESGGGLVQAGGSLRLSCAASGRIFFSNAMGWYRQAPGKERELVASITGGDDTNYADSVKGRFTISRDNAKNTVYLQMNSLKPEDTAVYYCAARAIPSYRWVYRFAPKYDYWGQGTQVTVSS
-- reply low polyreactivity

-- ask What value of measured polyreactivity (PSR sort gate) is listed for QVQLVESGGGLVQAGGSLRLSSAASGSTFGKYARGWYRQAPGKERELVAAITVNAGRTYYADSVKGRFTISRDNAKNTVYLQLNSLKPEDTAVYYCAGVPRRYYARYYYWGQGTQVTVSS ?
-- reply high polyreactivity

-- ask Which polyreactivity (PSR sort gate) is reported for this sequence? QVQLVESGGCLVQAGGSLRLSCAASGLLFYFYAMGWYRQAPGKEREFVAAISSGGDTYYADSVKGRFTISRDNSKNTVYLQMNSLKPVDTAVYYCAVGTVYLTYRGYEYWGQGTQVTVSS
-- reply high polyreactivity

-- ask Bench note: what polyreactivity (PSR sort gate) did QVQLQESGGGLVQAGGSLRLSCAASGVIFARNYMGWYRQAPGKERELVAGIGVGASTNYADSVKGRFTISRDNAKNTVYLQMNRLEPEDTAVYYCAVVDTVLGYHYYWGQGTQVTVSN show?
-- reply low polyreactivity
